test: reduced absorbance of E. coli cultures with phage – HTS, RecBCD inhibitor project, primary screen (AID 651602); conditions: growth absorbance, at 11.9 µM
Screen size: about 360,000 compounds; about 950 (0.26%) were called active. Rule as the data show it: active = inhibition above about 11%; inactive = the rest. Shown is part of a subset that was picked to be rich in actives.
Choose the fitting class; nothing outside 1.0 (active), 0.0 (inactive) is accepted.

> print(dat)
                                   compound  class
1  CCc1nnc(NS(=O)(=O)c2ccc(N=Cc3c(O)n(-c4ccccc4)c(=O)[nH]c3=O)cc2)s1    1.0

Prompt line: Hi, sorry to bother you, what did the test record for `C/C(=N/O)c1ccc2ccc3ccccc3c2c1` ?
Response line: 0.0

Prompt line: Hi, sorry to bother you, what did the test record for `Cc1ccc(-n2c(-c3ccc([N+](=O)[O-])cc3)nc3ccccc3c2=O)cc1` ?
Response line: 0.0

Prompt line: Hi, sorry to bother you, what did the test record for N#CC1=C(N)Oc2c(c(=O)oc3ccccc23)C1c1ccccc1OC(=O)c1cccs1 (centres undefined) ?
Response line: 0.0
